Measured Km of individual entries
TEST NAME: Standard protocol for determination of kcat and KM (continuous spectrophotometric assay, Acetyl CoA hydrolysis at 235 nm)
Assay type: biochemical
CONDITION: purified protein; about 23° C.; pH 6.8; 0.2 mM acetyl CoA; glyphosate 0.125 to 10 mM
Report as a plain number; the unit µM is understood.

Value of Km reported for the molecule SEQ ID NO: 333: GAT polypeptide (protein, 15_3F10, GAT polypeptide) MIEVKPINAEDTYEIRHRILRPNQPLEACKYETDLLRGAFHLGGYYRGKLISIVSFHQAEHPELEGQKQYQLRGMATLEGYREQKAGSTLIRHAEELLRKKGADLLWCNARTSASGYYKKLGFSEQGEVYDTPPAGPHILMYTKLT is 900

Value of Km reported for the molecule SEQ ID NO: 347: GAT polypeptide (protein, 20A12, GAT polypeptide) MIEVKPINAEDTYEIRHRILRPNQPLEACMYETDLLGGTFHLGGYYQGKLISIASFHNAEHSELEGQKQYQLRGMATLEGYREQKAGSTLIRHAEELLRKKGVDLLWCNARTSVSGYYKKLGFSEQGGIYDIPPIGPHILMYKKLA is 1100
